- target.or.test.system: T1, human CD7 (human, UniProt P09564 26-180, limits assumed)
- T1 construct: The construct is not described
- T1 sequence (looked up): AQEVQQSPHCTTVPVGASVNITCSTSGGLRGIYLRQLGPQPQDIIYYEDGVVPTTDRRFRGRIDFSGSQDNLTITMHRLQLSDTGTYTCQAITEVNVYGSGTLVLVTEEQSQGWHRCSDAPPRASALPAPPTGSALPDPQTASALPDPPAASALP
- test.summary: SPR; reference 7-AA-WT
measurement.kind: Fold Reduction in binding affinity compared to WT (Kd) (fold)
Unit fold implied. Number only.

CD7-PP-7 CD7 binding arm (Fab, V domains shown, Heavy chain Arg57Gly/Tyr108Ala) VH: QVQLQESGAELVKPGASVKLSCKASGYTFTSYWMHWVKQRPGQGLEWIGKINPSNGGTNYNEKFKSKATLTVDKSSSTAYMQLSSLTSEDSAVYYCARGGVYYDLYYAALDYWGQGTTVTVSS VL: DIELTQSPATLSVTPGDSVSLSCRASQSISNNLHWYQQKSHESPRLLIKSASQSISGIPSRFSGSGSGTDFTLSINSVETEDFGMYFCQQSNSWPYTFGGGTKLEIKR | 206

Now take the following binder into account.
Prompt: Any idea what its Fold Reduction in binding affinity compared to WT (Kd) is? The binder is CD7-PP-1-WT CD7 binding arm (Fab, V domains shown, also called PP WT) VH: QVQLQESGAELVKPGASVKLSCKASGYTFTSYWMHWVKQRPGQGLEWIGKINPSNGRTNYNEKFKSKATLTVDKSSSTAYMQLSSLTSEDSAVYYCARGGVYYDLYYYALDYWGQGTTVTVSS VL: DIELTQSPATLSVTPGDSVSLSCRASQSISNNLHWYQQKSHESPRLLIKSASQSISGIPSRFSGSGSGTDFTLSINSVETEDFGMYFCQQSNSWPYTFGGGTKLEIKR
Completion: 1.36
